Target Of Assay: human PPARγ (182–505aa) ligand binding domain (Homo sapiens)
Construct: γ(182–505aa); expressed in transfected cells; host or cells: COS-7
Sequence (P37231 182-505): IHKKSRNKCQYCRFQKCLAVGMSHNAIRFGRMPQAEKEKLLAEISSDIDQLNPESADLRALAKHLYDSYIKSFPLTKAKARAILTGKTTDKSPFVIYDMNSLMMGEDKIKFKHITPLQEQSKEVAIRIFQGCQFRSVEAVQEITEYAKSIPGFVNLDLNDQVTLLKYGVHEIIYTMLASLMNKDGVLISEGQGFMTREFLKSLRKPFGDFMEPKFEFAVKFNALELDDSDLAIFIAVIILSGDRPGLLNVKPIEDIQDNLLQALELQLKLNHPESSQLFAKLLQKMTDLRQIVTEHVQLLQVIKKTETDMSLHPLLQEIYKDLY
Protocol: PPAR transfection (Gal4-LBD luciferase reporter) assay, hPPARγ
Assay type: cell-based
Test Context: at 10-fold concentration of EC50 value in activation of hPPARα; ratio to DMSO control
Measure Name: activation factor, hPPARγ (FIGS. 1 to 5)

CC(C)(Oc1ccc(CCCN(CCc2ccccc2)c2nc3ccccc3s2)cc1)C(=O)O [Compound A] ... strongly activate
CC(C)(Oc1ccc(CCCN(CCc2ccccc2)C(=O)c2nc3ccccc3s2)cc1)C(=O)O [Compound B, reference compound] ... strongly activate

---

Target Of Assay: human PPARα (166–467aa) ligand binding domain (Homo sapiens)
Construct: human PPARα (166–467aa); expressed in transfected cells; host or cells: COS-7
Sequence (Q07869 166-467): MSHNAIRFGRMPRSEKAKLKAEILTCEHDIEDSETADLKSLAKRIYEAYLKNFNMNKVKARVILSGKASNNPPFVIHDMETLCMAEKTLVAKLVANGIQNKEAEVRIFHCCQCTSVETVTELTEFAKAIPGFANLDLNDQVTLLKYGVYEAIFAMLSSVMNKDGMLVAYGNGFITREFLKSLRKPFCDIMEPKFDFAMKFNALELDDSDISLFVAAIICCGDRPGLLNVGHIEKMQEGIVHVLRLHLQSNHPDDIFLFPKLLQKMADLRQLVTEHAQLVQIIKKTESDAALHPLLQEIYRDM
Protocol: PPAR transfection (Gal4-LBD luciferase reporter) assay, hPPARα
Format: cell-based
Test Context: transfected COS-7 cells, 16 hours, luciferase activity; read-out: hPPAR; EC50 α (agonist activity)
Measure Name: pEC50
Scale for pEC50: -log10 of concentration given in mol/L; no unit attached.

Q) Value wanted: pEC50 (human PPARα (166–467aa) ligand binding domain (Homo sapiens)) of entry CCC(Oc1cccc(CN(CCOc2ccccc2)c2nc3cc(F)ccc3o2)c1)C(=O)O (stereo not drawn)
A) 8.22

Q) Value wanted: pEC50 (human PPARα (166–467aa) ligand binding domain (Homo sapiens)) of entry CC(Oc1cccc(CCN(CCOc2ccccc2)c2nc3ccccc3o2)c1)C(=O)O (stereo not drawn)
A) 7.05

Q) Value wanted: pEC50 (human PPARα (166–467aa) ligand binding domain (Homo sapiens)) of entry CCC(Oc1cccc(CCN(CCCOc2ccc(F)cc2)c2nc3cc(OC)ccc3o2)c1)C(=O)O (stereo not drawn)
A) 7.52

Q) Value wanted: pEC50 (human PPARα (166–467aa) ligand binding domain (Homo sapiens)) of entry CCC(Oc1cccc(CCN(CCOc2ccc(OC)cc2)c2nc3ccccc3o2)c1)C(=O)O (stereo not drawn)
A) 8.00

Q) Value wanted: pEC50 (human PPARα (166–467aa) ligand binding domain (Homo sapiens)) of entry CC(Oc1cccc(CCN(CCOc2ccc(F)cc2)c2nc3cc(F)ccc3o2)c1)C(=O)O (stereo not drawn)
A) 7.70

Q) Value wanted: pEC50 (human PPARα (166–467aa) ligand binding domain (Homo sapiens)) of entry `COc1ccc(OCCCN(Cc2cccc(O[C@H](C)C(=O)O)c2)c2nc3ccccc3o2)cc1`
A) 8.70

Q) Value wanted: pEC50 (human PPARα (166–467aa) ligand binding domain (Homo sapiens)) of entry CCC(Oc1cccc(CN(CCCOc2ccc(F)cc2)c2nc3ccc(F)cc3o2)c1)C(=O)O (stereo not drawn)
A) 8.15

Q) Value wanted: pEC50 (human PPARα (166–467aa) ligand binding domain (Homo sapiens)) of entry COc1ccc2oc(N(CCOc3ccc(F)cc3)CCc3cccc(OC(C)C(=O)O)c3)nc2c1 (stereo not drawn)
A) 7.15

Q) Value wanted: pEC50 (human PPARα (166–467aa) ligand binding domain (Homo sapiens)) of entry CCC(Oc1cccc(CCN(CCCOc2ccccc2)c2nc3ccccc3o2)c1)C(=O)O (stereo not drawn)
A) 7.30

Q) Value wanted: pEC50 (human PPARα (166–467aa) ligand binding domain (Homo sapiens)) of entry CCC(Oc1cccc(CCN(CCCOc2ccc(F)cc2)c2nc3ccccc3o2)c1)C(=O)O (stereo not drawn)
A) 7.40

Q) Value wanted: pEC50 (human PPARα (166–467aa) ligand binding domain (Homo sapiens)) of entry CC(Oc1cccc(CN(CCOc2ccccc2)c2nc3ccccc3o2)c1)C(=O)O (stereo not drawn)
A) 7.15

Q) Value wanted: pEC50 (human PPARα (166–467aa) ligand binding domain (Homo sapiens)) of entry `O=C(O)COc1cccc(CN(CCCOc2ccccc2)c2nc3ccccc3o2)c1`
A) 5.92

Q) Value wanted: pEC50 (human PPARα (166–467aa) ligand binding domain (Homo sapiens)) of entry CC(Oc1cccc(CN(CCCOc2ccccc2)c2nc3ccccc3o2)c1)C(=O)O (stereo not drawn)
A) 8.00

Q) Value wanted: pEC50 (human PPARα (166–467aa) ligand binding domain (Homo sapiens)) of entry CCC(Oc1cccc(CCN(CCOc2ccccc2)c2nc3ccccc3o2)c1)C(=O)O (stereo not drawn)
A) 7.40

Q) Value wanted: pEC50 (human PPARα (166–467aa) ligand binding domain (Homo sapiens)) of entry CCC(Oc1cccc(CCN(CCCOc2ccccc2)c2nc3cc(F)ccc3o2)c1)C(=O)O (stereo not drawn)
A) 7.10

Q) Value wanted: pEC50 (human PPARα (166–467aa) ligand binding domain (Homo sapiens)) of entry `CC[C@@H](Oc1cccc(CN(CCCOc2ccc(F)cc2)c2nc3ccccc3o2)c1)C(=O)O`
A) 8.52

Q) Value wanted: pEC50 (human PPARα (166–467aa) ligand binding domain (Homo sapiens)) of entry CCC(Oc1cccc(CCN(CCOc2ccc(OC)cc2)c2nc3cc(OC)ccc3o2)c1)C(=O)O (stereo not drawn)
A) 7.10

Q) Value wanted: pEC50 (human PPARα (166–467aa) ligand binding domain (Homo sapiens)) of entry COc1ccc(OCCCN(Cc2cccc(OC(C)C(=O)O)c2)c2nc3ccccc3o2)cc1 (stereo not drawn)
A) 8.00

Q) Value wanted: pEC50 (human PPARα (166–467aa) ligand binding domain (Homo sapiens)) of entry CC(Oc1cccc(CN(CCCOc2ccccc2)c2nc3cc4c(cc3o2)OCO4)c1)C(=O)O (stereo not drawn)
A) 8.05

Q) Value wanted: pEC50 (human PPARα (166–467aa) ligand binding domain (Homo sapiens)) of entry CCC(Oc1cccc(CCN(CCCOc2ccc(Cl)cc2)c2nc3ccccc3o2)c1)C(=O)O (stereo not drawn)
A) 7.22

Q) Value wanted: pEC50 (human PPARα (166–467aa) ligand binding domain (Homo sapiens)) of entry CCC(Oc1cccc(CN(CCOc2ccc(F)cc2)c2nc3ccc(F)cc3o2)c1)C(=O)O (stereo not drawn)
A) 8.40

Q) Value wanted: pEC50 (human PPARα (166–467aa) ligand binding domain (Homo sapiens)) of entry COc1ccc2oc(N(CCCOc3ccc(Cl)cc3)Cc3cccc(OC(C)C(=O)O)c3)nc2c1 (stereo not drawn)
A) 8.00

Q) Value wanted: pEC50 (human PPARα (166–467aa) ligand binding domain (Homo sapiens)) of entry CC(Oc1cccc(CN(CCCC(=O)c2ccccc2)c2nc3ccccc3o2)c1)C(=O)O (stereo not drawn)
A) 8.05

Q) Value wanted: pEC50 (human PPARα (166–467aa) ligand binding domain (Homo sapiens)) of entry CCC(Oc1cccc(CN(CCCOc2ccc(C)cc2)c2nc3ccccc3o2)c1)C(=O)O (stereo not drawn)
A) 9.00

Q) Value wanted: pEC50 (human PPARα (166–467aa) ligand binding domain (Homo sapiens)) of entry `COc1ccc(OCCCN(Cc2cccc(OC(C)(C)C(=O)O)c2)c2nc3ccccc3o2)cc1`
A) 7.30

Q) Value wanted: pEC50 (human PPARα (166–467aa) ligand binding domain (Homo sapiens)) of entry `CC(C)(Oc1cccc(CN(CCOc2ccc(Cl)cc2)c2nc3ccccc3o2)c1)C(=O)O`
A) 7.15

Q) Value wanted: pEC50 (human PPARα (166–467aa) ligand binding domain (Homo sapiens)) of entry CC(Oc1cccc(CN(CCOc2ccc(F)cc2)c2nc3ccccc3o2)c1)C(=O)O (stereo not drawn)
A) 7.70

Q) Value wanted: pEC50 (human PPARα (166–467aa) ligand binding domain (Homo sapiens)) of entry CCC(Oc1cccc(CN(CCCOc2ccccc2)c2nc3cc4c(cc3o2)OCO4)c1)C(=O)O (stereo not drawn)
A) 8.30

Q) Value wanted: pEC50 (human PPARα (166–467aa) ligand binding domain (Homo sapiens)) of entry CC(Oc1cccc(CCN(CCOc2ccc(F)cc2)c2nc3ccccc3o2)c1)C(=O)O (stereo not drawn)
A) 7.22

Q) Value wanted: pEC50 (human PPARα (166–467aa) ligand binding domain (Homo sapiens)) of entry `CC[C@@H](Oc1cccc(CN(CCCOc2ccccc2)c2nc3ccccc3o2)c1)C(=O)O`
A) 8.70

Q) Value wanted: pEC50 (human PPARα (166–467aa) ligand binding domain (Homo sapiens)) of entry CC(Oc1cccc(CN(CCCOc2cccc(N(C)C)c2)c2nc3ccccc3o2)c1)C(=O)O (stereo not drawn)
A) 10.00

Q) Value wanted: pEC50 (human PPARα (166–467aa) ligand binding domain (Homo sapiens)) of entry CCC(Oc1cccc(CN(CCCOc2ccccc2)c2nc3ccccc3o2)c1)C(=O)O (stereo not drawn)
A) 8.00

Q) Value wanted: pEC50 (human PPARα (166–467aa) ligand binding domain (Homo sapiens)) of entry CC(Oc1cccc(CN(CCCOc2ccc3c(c2)OCO3)c2nc3ccccc3o2)c1)C(=O)O (stereo not drawn)
A) 8.40

Where do the numbers come from? From patent US7183295B2.
